Target: T1, human CD3 (human, UniProt P07766 23-207; P04234 22-171; P09693 23-182)
T1 construct: whole, on cells; also called hCD3; CD3 on Jurkat cells
T1 sequence (P07766 23-207, chain 1 of 3): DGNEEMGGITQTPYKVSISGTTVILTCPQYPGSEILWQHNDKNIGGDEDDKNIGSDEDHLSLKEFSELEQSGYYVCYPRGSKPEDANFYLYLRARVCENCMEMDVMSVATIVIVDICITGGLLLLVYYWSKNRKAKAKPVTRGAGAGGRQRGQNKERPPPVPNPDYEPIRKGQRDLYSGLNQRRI
T1 sequence (P04234 22-171, chain 2 of 3): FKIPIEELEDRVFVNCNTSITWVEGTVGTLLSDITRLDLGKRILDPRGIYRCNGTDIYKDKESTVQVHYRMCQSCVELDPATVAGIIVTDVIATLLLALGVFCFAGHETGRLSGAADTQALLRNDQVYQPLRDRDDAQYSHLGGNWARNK
T1 sequence (P09693 23-182, chain 3 of 3): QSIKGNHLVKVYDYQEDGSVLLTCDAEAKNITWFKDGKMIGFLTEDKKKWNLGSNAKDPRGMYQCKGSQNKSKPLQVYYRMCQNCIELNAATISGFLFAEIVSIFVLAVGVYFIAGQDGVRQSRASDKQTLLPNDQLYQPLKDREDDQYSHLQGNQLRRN
Experiment: FACS on Jurkat cells
MEASUREMENT LABEL: EC50 (nM)
Write down the numeric answer in nM and omit the unit.

Fill blank: measured EC50 of the binder hu40E9-L2H3-Y102S.H (antibody, V domains shown) VH: EVQLVQSGAEVKKPGSSVKVSCKASGYTFSSYVIHWVRQAPGQGLEWMGYINPYNDVIKYNEKFKGRVTLTSDKSTSTAYMELSSLRSEDTAVYYCARDSYSSYDGFAYWGQGTLVTVSS VL: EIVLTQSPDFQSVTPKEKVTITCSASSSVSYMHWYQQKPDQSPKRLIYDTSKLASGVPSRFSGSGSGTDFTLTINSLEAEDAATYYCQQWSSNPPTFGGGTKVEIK is ____.
0.47

Field entry: hu40E9-L2H3-D56G.H (antibody, V domains shown) VH: EVQLVQSGAEVKKPGSSVKVSCKASGYTFSSYVIHWVRQAPGQGLEWMGYINPYNGVIKYNEKFKGRVTLTSDKSTSTAYMELSSLRSEDTAVYYCARDSYYSYDGFAYWGQGTLVTVSS VL: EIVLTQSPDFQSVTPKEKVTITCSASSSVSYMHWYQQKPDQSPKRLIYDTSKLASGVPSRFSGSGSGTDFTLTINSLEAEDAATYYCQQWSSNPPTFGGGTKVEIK
0.32

Also need hu40E9-L2H3-N93S.L (antibody, V domains shown) VH: EVQLVQSGAEVKKPGSSVKVSCKASGYTFSSYVIHWVRQAPGQGLEWMGYINPYNDVIKYNEKFKGRVTLTSDKSTSTAYMELSSLRSEDTAVYYCARDSYYSYDGFAYWGQGTLVTVSS VL: EIVLTQSPDFQSVTPKEKVTITCSASSSVSYMHWYQQKPDQSPKRLIYDTSKLASGVPSRFSGSGSGTDFTLTINSLEAEDAATYYCQQWSSSPPTFGGGTKVEIK , thanks.
0.6

Entry hu40E9-L2H3-S91R.L (antibody, V domains shown) VH: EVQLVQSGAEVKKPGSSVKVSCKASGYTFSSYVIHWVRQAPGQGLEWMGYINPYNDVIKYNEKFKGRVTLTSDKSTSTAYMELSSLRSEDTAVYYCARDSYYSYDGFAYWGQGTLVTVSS VL: EIVLTQSPDFQSVTPKEKVTITCSASSSVSYMHWYQQKPDQSPKRLIYDTSKLASGVPSRFSGSGSGTDFTLTINSLEAEDAATYYCQQWRSNPPTFGGGTKVEIK please
0.32

Another binder to look at: hu40E9-L3H1 (antibody, V domains shown, humanized 40-C12-C10-E9) VH: EVQLVQSGAEVKKPGSSVKVSCKASGGTFSSYVIHWVRQAPGQGLEWMGYINPYNDVIKYNEKFKGRVTITADKSTSTAYMELSSLRSEDTAVYYCARDSYYSYDGFAYWGQGTLVTVSS VL: EIVLTQSPDFQSVTPKEKVTITCSASSSVSYMHWYQQKPDQSPKRWIYDTSKLASGVPSRFSGSGSGTDYTLTINSLEAEDAATYYCQQWSSNPPTFGGGTKVEIK
0.75
